// data source = ChEMBL document CHEMBL5137120

EXPERIMENT DESCRIPTION: Cytotoxicity against human THP-1 cells assessed as cell growth inhibition incubated for 24 hrs by MTT assay
Format: toxicity, cell-based
PARAMETER MEASURED: IC50 at 24 h (nM)
Give bare numbers, in nM.

Returns the measured IC50 at 24 h for the input compound. Input: CC(C)[C@H]1CC[C@@H]2[C@]1(C)CC[C@]1(C)[C@H]3CC=C4[C@@H](CC[C@H](O)C4(C)C)[C@]3(C)CC[C@@]21C
1780
